Assay: Toxicity in B6C3F1 mouse allografted with mouse 16/C cells assessed as lethality at 56 mg/kg, iv
Format: organism-based
Parameters: dose 56 mg/kg, route intravenous
Settings: in vivo, read-out: Activity
endpoint-name: mortality (%)
Give bare numbers, in %.

**Q:** Tell me mortality reported for CC(=O)O[C@@H]1[C@H]2[C@H]3[C@H]([C@H](OC(C)=O)[C@H](OC(C)=O)[C@]2(C)[C@@H]2[C@@H]1[C@]1(C)C(=C[C@H]2C)OC(=O)[C@@]1(C)O)[C@]1(C)[C@H](C[C@@H]2O[C@@H]2[C@@H]1OC(C)=O)C(=O)[C@@H]3O [TACCALONOLIDE A]
**A:** 20

###

Assay: Toxicity in B6C3F1 mouse allografted with mouse 16/C cells assessed as lethality at 20 mg/kg, iv administered on days 1,4,6 and day 8 or 9 measured after 12 days relative to control
Format: organism-based
Design: dose 20 mg/kg, route intravenous
Conditions: in vivo, read-out: Activity
endpoint-name: mortality at 288 h (%)
Give bare numbers, in %.

**Q:** Tell me mortality at 288 h reported for CC(=O)O[C@H]1C[C@H]2[C@H]([C@@H]3[C@@H](O)[C@@H]4[C@H]([C@H](C)C=C5OC(=O)[C@@](C)(O)[C@@]54C)[C@]31C)[C@@H](O)C(=O)[C@H]1C[C@@H]3O[C@@H]3[C@H](OC(C)=O)[C@@]12C [TACCALONOLIDE N]
**A:** 0

###

Assay: Toxicity in B6C3F1 mouse allografted with mouse 16/C cells assessed as lethality at 54 mg/kg, iv administered on days 1,4,6, 8, 9, 10 and 11 measured after 12 days relative to control
Type: organism-based
Parameters: dose 54 mg/kg, route intravenous
Conditions: in vivo, read-out: Activity
endpoint-name: mortality at 288 h

**Q:** Tell me mortality at 288 h reported for CC(=O)O[C@@H]1[C@H]2[C@@H]3[C@@H](O)C(=O)[C@H]4C[C@@H]5O[C@@H]5[C@H](OC(C)=O)[C@]4(C)[C@H]3C[C@H](OC(C)=O)[C@]2(C)[C@@H]2[C@@H]1[C@]1(C)C(=C[C@H]2C)OC(=O)[C@@]1(C)O [TACCALONOLIDE E]
**A:** 0%
